- Tested on: SEM cells
- Protocol: cell viability relative to DMSO control; higher = less cytotoxic
- Test conditions: RPMI 5 mM glucose + 10% FBS; 48 h; 0.0632 µM
A collection of compounds and their measured cell viability

>  <Compound>
CC1=CC=CC=C1CN2C(=O)C/3=C(/CCN(CC4=CC=CC=C4)C3)N\5CC\N=C25

>  <Unit annotation>
%

>  <cell viability>
114

$$$$
>  <Compound>
CCc1c(C(=O)C(N)=O)c2c(OCC(=O)O)cccc2n1Cc1ccccc1

>  <Unit annotation>
%

>  <cell viability>
90.8

$$$$
>  <Compound>
C[C@@H](O)[C@@H]1[C@H]2[C@@H](C)\C(=C(/N2C1=O)C(=O)OCOC(=O)C(C)(C)C)SC3CN(C3)/C4=N/CCS4

>  <Unit annotation>
%

>  <cell viability>
101

$$$$
>  <Compound>
Cc1ncc(OC[C@@]2(c3cccc(F)c3)C[C@H]2C(=O)Nc2ccc(F)cn2)c(C)n1

>  <Unit annotation>
%

>  <cell viability>
103

$$$$
>  <Compound>
O=C(CO)N1CCC(c2n[nH]c(-c3ccc(Cl)cc3)c2-c2ccncn2)CC1

>  <Unit annotation>
%

>  <cell viability>
107

$$$$
>  <Compound>
O=C(NC[C@H]1CN(c2ccc(N3CCOCC3=O)cc2)C(=O)O1)c1ccc(Cl)s1

>  <Unit annotation>
%

>  <cell viability>
102

$$$$
>  <Compound>
CC(C)Nc1cc(C(F)(F)F)cc2nc(NC(=O)c3cccnc3)nn12

>  <Unit annotation>
%

>  <cell viability>
107

$$$$
>  <Compound>
CC1(C)C(=O)N(CCN2CCC(C(=O)c3ccc(F)cc3)CC2)c2ccccc21

>  <Unit annotation>
%

>  <cell viability>
105

$$$$
>  <Compound>
C[S+](=O)([O-])N(Cc1ccco1)CC(O)Cn1c2ccccc2c2ccccc21 (centres undefined)

>  <Unit annotation>
%

>  <cell viability>
122

$$$$
>  <Compound>
O=C1Nc2ccc(Cl)cc2[C@@](C#CC2CC2)(C(F)(F)F)O1

>  <Unit annotation>
%

>  <cell viability>
89.6

$$$$
>  <Compound>
CN1CCC(CC1)COC2=CN=C(N=C2)C3=CC(=CC=C3)CN4/N=C(\C=C/C4=O)C5=CC(=CC=C5)C#N

>  <Unit annotation>
%

>  <cell viability>
67.5

$$$$
>  <Compound>
OCc1ccc(-c2nn(Cc3ccccc3)c3ccccc23)o1

>  <Unit annotation>
%

>  <cell viability>
119

$$$$
>  <Compound>
OC(=O)\C1=C\N(C2=CC=C(F)C=C2)C3=C(C=C(F)C(=C3)N4CCNCC4)C1=O

>  <Unit annotation>
%

>  <cell viability>
114

$$$$
>  <Compound>
C1CCC(C(CC2CCCCN2)C2CCCCC2)CC1 (centres undefined)

>  <Unit annotation>
%

>  <cell viability>
116

$$$$
>  <Compound>
NC(CO)(CO)CCc1ccc(Sc2cccc(OCc3ccccc3)c2)cc1Cl

>  <Unit annotation>
%

>  <cell viability>
104

$$$$
>  <Compound>
O=C1Nc2cc(Br)ccc2/C1=C1/Nc2ccccc2/C1=N\O

>  <Unit annotation>
%

>  <cell viability>
98.4

$$$$
>  <Compound>
Cc1nccn1CC1CCc2c(c3ccccc3n2C)C1=O (centres undefined)

>  <Unit annotation>
%

>  <cell viability>
115

$$$$
>  <Compound>
Cc1cccc(C)c1OCC(=O)N[C@@H](Cc1ccccc1)[C@@H](O)C[C@H](Cc1ccccc1)NC(=O)[C@H](C(C)C)N1CCCNC1=O

>  <Unit annotation>
%

>  <cell viability>
108

$$$$
>  <Compound>
CC1=C(C=CC=C1)N2\C(=N/C3=C(C(=CC=C3)C)C2=O)C[N]4N=CC5=C4N=CN=C5N

>  <Unit annotation>
%

>  <cell viability>
113

$$$$
>  <Compound>
[NH2][Pt]([NH2])([Cl])[Cl]

>  <Unit annotation>
%

>  <cell viability>
102

$$$$
>  <Compound>
CCC(=O)OCC(=O)[C@@]1(OC(=O)CC)[C@@H](C)C[C@H]2[C@@H]3CCC4=CC(=O)C=C[C@]4(C)[C@@]3(F)[C@@H](O)C[C@@]21C

>  <Unit annotation>
%

>  <cell viability>
116

$$$$
>  <Compound>
CC(=O)O[C@@]1(CC[C@H]2[C@@H]3\C=C(C)/C4=C/C(=O)CC[C@]4(C)[C@H]3CC[C@]12C)C(C)=O

>  <Unit annotation>
%

>  <cell viability>
93.5

$$$$
>  <Compound>
CC1(C)OC2CC3C4CC(F)C/5=C/C(=O)/C=C\C5(C)C4C(O)CC3(C)[C@@]2(O1)C(=O)CO (some centres undefined)

>  <Unit annotation>
%

>  <cell viability>
101

$$$$
>  <Compound>
O=C(/C=C/c1cccc([S+](=O)([O-])Nc2ccccc2)c1)NO

>  <Unit annotation>
%

>  <cell viability>
118

$$$$
